tested on: rat adipocytes; assay: permeability into cell interiors (intact cell system, lipogenesis); assay type: cell-based; conditions: graded in words
Quantity Kind: Permeability into cell interiors

Example cases with answers are listed next.
{"Compound": "CC(C)CC(NC(=O)OCc1ccccc1)C(=O)NCCS(=O)(=O)O (stereo not shown) [CBZ-leucine-Taurine, reference compound]", "Permeability into cell interiors": "poor"}
{"Compound": "O=C(N[C@@H](Cc1c(Sc2ccc([N+](=O)[O-])cc2[N+](=O)[O-])[nH]c2ccccc12)C(=O)NCCCS(=O)(=O)O)OCc1ccccc1", "Permeability into cell interiors": "excellent"}
{"Compound": "O=C(N[C@@H](Cc1c(Sc2ccccc2[N+](=O)[O-])[nH]c2ccccc12)C(=O)NCCS(=O)(=O)O)OCc1ccccc1", "Permeability into cell interiors": "good"}
{"Compound": "O=C(N[C@@H](Cc1c(Sc2ccc([N+](=O)[O-])cc2[N+](=O)[O-])[nH]c2ccccc12)C(=O)NCS(=O)(=O)O)OCc1ccccc1", "Permeability into cell interiors": "excellent"}
{"Compound": "O=C(N[C@@H](Cc1c[nH]c2ccccc12)C(=O)NCP(=O)(O)O)OCc1ccccc1", "Permeability into cell interiors": "poor"}

What does the data say about its Permeability into cell interiors? Entry: CC(=O)N[C@@H](Cc1c(Sc2ccc([N+](=O)[O-])cc2[N+](=O)[O-])[nH]c2ccccc12)C(=O)NCCS(=O)(=O)O
poor

Any idea what its Permeability into cell interiors is? The compound is O=C(O)CC(NC(=O)[C@H](Cc1c(Sc2ccc([N+](=O)[O-])cc2[N+](=O)[O-])[nH]c2ccccc12)NC(=O)OCc1ccccc1)C(=O)O (stereo partly shown)
good

###

Entries and their measured IC50 follow.
biological target: insulin receptor tyrosine kinase (InsRTK) (Rattus norvegicus); test: PolyGlu4 Tyr phosphorylation by partially purified (wheat-germ-agglutinin purified) rat liver insulin receptor, cell-free; format: biochemical; parameters: wheat-germ-agglutinin purified rat liver insulin receptor; from tissue; host or cells: rat liver (wheat-germ-agglutinin purified); conditions: cell-free; 30 min, 22° C., pH 7.4; ATP 17 μM, insulin 0.1 μM; read-out: IC50 value, InsRTK-catalyzed PolyGlu4 Tyr phosphorylation
Sequence (P15127 764-1383 limits assumed): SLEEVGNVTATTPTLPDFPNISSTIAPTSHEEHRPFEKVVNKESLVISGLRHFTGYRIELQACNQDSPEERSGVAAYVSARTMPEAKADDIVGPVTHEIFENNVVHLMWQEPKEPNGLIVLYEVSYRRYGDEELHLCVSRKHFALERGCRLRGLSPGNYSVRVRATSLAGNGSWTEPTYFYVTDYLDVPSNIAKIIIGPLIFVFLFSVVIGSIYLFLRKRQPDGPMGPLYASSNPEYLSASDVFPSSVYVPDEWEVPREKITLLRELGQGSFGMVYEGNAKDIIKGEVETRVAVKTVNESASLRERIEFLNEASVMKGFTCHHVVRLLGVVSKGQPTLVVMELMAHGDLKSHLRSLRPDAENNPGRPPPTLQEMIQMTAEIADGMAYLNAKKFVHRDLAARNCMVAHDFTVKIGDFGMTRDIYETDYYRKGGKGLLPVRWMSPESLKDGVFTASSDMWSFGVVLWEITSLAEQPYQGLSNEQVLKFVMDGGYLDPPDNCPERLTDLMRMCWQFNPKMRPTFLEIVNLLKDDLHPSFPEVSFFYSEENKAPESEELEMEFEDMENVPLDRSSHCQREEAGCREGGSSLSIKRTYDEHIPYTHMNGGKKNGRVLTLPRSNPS
Sequence (P15127 27-759 partner limits assumed): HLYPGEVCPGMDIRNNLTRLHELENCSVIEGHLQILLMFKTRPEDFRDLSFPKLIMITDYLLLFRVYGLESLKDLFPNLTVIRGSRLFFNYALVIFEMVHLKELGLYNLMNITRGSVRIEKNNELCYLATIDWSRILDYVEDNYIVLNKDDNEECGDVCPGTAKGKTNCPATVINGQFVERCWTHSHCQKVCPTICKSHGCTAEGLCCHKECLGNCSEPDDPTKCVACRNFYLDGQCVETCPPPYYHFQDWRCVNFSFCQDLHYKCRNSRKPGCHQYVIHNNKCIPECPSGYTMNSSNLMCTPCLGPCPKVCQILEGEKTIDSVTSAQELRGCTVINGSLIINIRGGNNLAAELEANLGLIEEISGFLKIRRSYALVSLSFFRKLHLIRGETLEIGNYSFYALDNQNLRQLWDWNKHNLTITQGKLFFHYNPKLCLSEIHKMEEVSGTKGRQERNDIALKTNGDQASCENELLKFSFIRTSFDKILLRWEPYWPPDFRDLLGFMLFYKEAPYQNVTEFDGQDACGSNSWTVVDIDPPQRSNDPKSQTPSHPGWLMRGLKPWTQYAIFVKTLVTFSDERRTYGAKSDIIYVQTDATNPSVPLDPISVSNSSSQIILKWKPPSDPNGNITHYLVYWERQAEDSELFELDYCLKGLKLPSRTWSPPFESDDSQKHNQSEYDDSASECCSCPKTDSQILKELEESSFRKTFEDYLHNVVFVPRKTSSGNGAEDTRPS
The reply should contain only the number, in mM.

{"Molecule": "CC(=O)N[C@@H](Cc1c[nH]c2ccccc12)C(=O)NCCS(=O)(=O)O [AC-TRP-TAU, reference compound]", "IC50 [mM]": 5}
{"Molecule": "O=C(N[C@@H](Cc1c[nH]c2ccccc12)C(=O)NCCS(=O)(=O)O)OCc1ccccc1 [CBZ-TRP-TAU]", "IC50 [mM]": 2.7}
{"Molecule": "O=C(N[C@@H](Cc1c[nH]c2ccccc12)C(=O)NCCCS(=O)(=O)O)OCc1ccccc1 [CBZ-TRP-β-TAU]", "IC50 [mM]": 3.5}

Item O=C(N[C@@H](Cc1c(Sc2ccccc2[N+](=O)[O-])[nH]c2ccccc12)C(=O)NCCS(=O)(=O)O)OCc1ccccc1 [CBZ-NPS-TRP-TAU] with insulin receptor tyrosine kinase (InsRTK) (Rattus norvegicus) - IC50?
0.55

###

target: insulin receptor tyrosine kinase (InsRTK) (Rattus norvegicus); assay: inactivation of InsRTK by affinity reagent; assay type: biochemical; conditions: covalent affinity reagent
Sequence (P15127 27-1383): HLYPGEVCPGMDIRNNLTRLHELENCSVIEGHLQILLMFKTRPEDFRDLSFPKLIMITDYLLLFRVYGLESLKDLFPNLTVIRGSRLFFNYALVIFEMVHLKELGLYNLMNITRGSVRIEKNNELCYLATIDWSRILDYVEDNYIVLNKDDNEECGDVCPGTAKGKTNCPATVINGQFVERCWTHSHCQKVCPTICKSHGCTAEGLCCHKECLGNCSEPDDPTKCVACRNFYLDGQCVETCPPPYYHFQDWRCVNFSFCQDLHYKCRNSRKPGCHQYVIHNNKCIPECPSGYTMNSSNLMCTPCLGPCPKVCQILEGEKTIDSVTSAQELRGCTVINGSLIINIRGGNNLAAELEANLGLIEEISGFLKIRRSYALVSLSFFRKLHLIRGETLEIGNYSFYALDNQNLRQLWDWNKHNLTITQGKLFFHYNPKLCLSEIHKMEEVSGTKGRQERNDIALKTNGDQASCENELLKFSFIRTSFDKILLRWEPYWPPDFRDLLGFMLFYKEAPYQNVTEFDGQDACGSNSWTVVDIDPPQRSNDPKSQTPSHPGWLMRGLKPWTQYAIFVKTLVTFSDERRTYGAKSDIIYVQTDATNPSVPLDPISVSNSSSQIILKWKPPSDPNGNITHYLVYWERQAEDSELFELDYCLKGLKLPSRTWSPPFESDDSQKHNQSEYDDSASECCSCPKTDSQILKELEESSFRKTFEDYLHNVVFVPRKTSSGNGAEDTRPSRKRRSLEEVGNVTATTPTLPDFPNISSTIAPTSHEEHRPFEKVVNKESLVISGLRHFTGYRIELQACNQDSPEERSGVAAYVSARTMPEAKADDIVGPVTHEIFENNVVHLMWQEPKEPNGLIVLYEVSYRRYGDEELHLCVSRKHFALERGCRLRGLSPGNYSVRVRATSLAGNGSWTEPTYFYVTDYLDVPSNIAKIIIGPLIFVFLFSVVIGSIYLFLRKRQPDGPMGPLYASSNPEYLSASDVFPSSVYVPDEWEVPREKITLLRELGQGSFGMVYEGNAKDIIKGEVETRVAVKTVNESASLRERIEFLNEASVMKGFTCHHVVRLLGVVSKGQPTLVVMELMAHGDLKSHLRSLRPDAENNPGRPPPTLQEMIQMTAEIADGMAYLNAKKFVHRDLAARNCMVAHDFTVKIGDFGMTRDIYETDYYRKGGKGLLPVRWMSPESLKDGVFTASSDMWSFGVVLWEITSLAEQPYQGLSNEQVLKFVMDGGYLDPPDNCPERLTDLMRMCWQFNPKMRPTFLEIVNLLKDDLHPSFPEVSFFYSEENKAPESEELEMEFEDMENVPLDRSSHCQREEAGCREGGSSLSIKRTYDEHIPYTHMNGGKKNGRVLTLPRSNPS
Quantity Kind: IC50 (µM)
Write down the numeric answer in µM and omit the unit.

If you can, please state the reported IC50 value of O=C(NC(Cc1ccccc1)C(=O)ON1C(=O)CCC1=O)OCc1ccccc1 (stereo not shown) [CBZ-Phe-OSU] .
50

###

test: solubility; settings: dmso, organic solvent or mixture
Quantity Kind: solubility (mM)
Reply with just the number (in mM).

I am curious: what solubility value has been reported for O=C(N[C@@H](Cc1c(Sc2ccc([N+](=O)[O-])cc2[N+](=O)[O-])[nH]c2ccccc12)C(=O)NCCS(=O)(=O)O)OCc1ccccc1 ?
20

###

tested on: rat adipocytes; assay: permeability into cell interiors (intact cell system, lipogenesis); assay type: cell-based; conditions: graded in words

{"Molecule": "CC(C)(C)OC(=O)N[C@@H](Cc1c(Sc2ccc([N+](=O)[O-])cc2[N+](=O)[O-])[nH]c2ccccc12)C(=O)NCS(=O)(=O)O [tBoc-DNPS-TRP-aminomethyl-SO3, tBoc-DNPS-TRP-aminomethylsulfonic acid]", "Permeability into cell interiors": "excellent"}
{"Molecule": "O=C(N[C@@H](Cc1c(Sc2ccc([N+](=O)[O-])cc2[N+](=O)[O-])[nH]c2ccccc12)C(=O)NCCS(=O)(=O)O)OCc1ccccc1 [CBZ-DNPS-TRP-TAU]", "Permeability into cell interiors": "excellent"}
{"Molecule": "O=C(N[C@@H](Cc1c[nH]c2ccccc12)C(=O)NCCS(=O)(=O)O)OCc1ccccc1 [CBZ-TRP-TAU]", "Permeability into cell interiors": "poor"}

###

target: UniProtKB P15127; assay: PolyGlu4 Tyr phosphorylation by partially purified (wheat-germ-agglutinin purified) rat liver insulin receptor, cell-free; format: biochemical; set-up: wheat-germ-agglutinin purified rat liver insulin receptor; from tissue; host or cells: rat liver (wheat-germ-agglutinin purified); settings: relative; CBZ-DNPS-TRP-Taurine 100
Quantity Kind: Relative cell-free potency in inhibiting InsRTK (%)
Lab book: enter the figure in %, no units written.

Sample records with Relative cell-free potency in inhibiting InsRTK:
{"Compound": "CC(C)CC(NC(=O)OCc1ccccc1)C(=O)NCCS(=O)(=O)O (centres unmarked) [CBZ-leucine-Taurine, reference compound]", "Unit Label": "%", "Recorded Result": 2}
{"Compound": "O=C(N[C@@H](Cc1c[nH]c2ccccc12)C(=O)NCCS(=O)(=O)O)OCc1ccccc1", "Unit Label": "%", "Recorded Result": 20}
{"Compound": "CC(C)(C)OC(=O)N[C@@H](Cc1c(Sc2ccc([N+](=O)[O-])cc2[N+](=O)[O-])[nH]c2ccccc12)C(=O)NCS(=O)(=O)O", "Unit Label": "%", "Recorded Result": 80}
{"Compound": "O=C(N[C@@H](Cc1c(Sc2ccc([N+](=O)[O-])cc2[N+](=O)[O-])[nH]c2ccccc12)C(=O)NCS(=O)(=O)O)OCc1ccccc1", "Unit Label": "%", "Recorded Result": 90}

Next, consider the following compound.
Reported Relative cell-free potency in inhibiting InsRTK for CC(=O)N[C@@H](Cc1c(Sc2ccc([N+](=O)[O-])cc2[N+](=O)[O-])[nH]c2ccccc12)C(=O)NCCS(=O)(=O)O : what is it?
80

###

test system: rat adipocytes; experiment: permeability into cell interiors (intact cell system, lipogenesis); type: cell-based; details: graded in words

{"Compound Structure": "CC(C)(C)OC(=O)N[C@@H](Cc1c(Sc2ccc([N+](=O)[O-])cc2[N+](=O)[O-])[nH]c2ccccc12)C(=O)NCCS(=O)(=O)O", "Permeability into cell interiors": "excellent"}
{"Compound Structure": "CC(C)(C)OC(=O)N[C@@H](Cc1c(Sc2ccc([N+](=O)[O-])cc2[N+](=O)[O-])[nH]c2ccccc12)C(=O)NCCCS(=O)(=O)O", "Permeability into cell interiors": "excellent"}

###

molecular target: insulin receptor tyrosine kinase (InsRTK) (Rattus norvegicus, UniProt P15127); assay: PolyGlu4 Tyr phosphorylation by partially purified (wheat-germ-agglutinin purified) rat liver insulin receptor, cell-free; format: biochemical; parameters: wheat-germ-agglutinin purified rat liver insulin receptor; from tissue; host or cells: rat liver (wheat-germ-agglutinin purified); details: relative; CBZ-DNPS-TRP-Taurine 100
Below is a list of entries, each paired with its recorded Relative cell-free potency in inhibiting InsRTK value.
Write the value in % as a bare number.

Look over these answered cases.
{"Compound": "O=C(N[C@@H](Cc1c(Sc2ccccc2[N+](=O)[O-])[nH]c2ccccc12)C(=O)NCCS(=O)(=O)O)OCc1ccccc1", "Study Target": "insulin receptor tyrosine kinase (InsRTK) (Rattus norvegicus, UniProt P15127)", "Unit Label": "%", "Recorded Result": 30}
{"Compound": "O=C(O)CC(NC(=O)[C@H](Cc1c(Sc2ccc([N+](=O)[O-])cc2[N+](=O)[O-])[nH]c2ccccc12)NC(=O)OCc1ccccc1)C(=O)O (stereo partly drawn)", "Study Target": "insulin receptor tyrosine kinase (InsRTK) (Rattus norvegicus, UniProt P15127)", "Unit Label": "%", "Recorded Result": 5}
{"Compound": "CC(C)(C)OC(=O)N[C@@H](Cc1c(Sc2ccc([N+](=O)[O-])cc2[N+](=O)[O-])[nH]c2ccccc12)C(=O)NCCCS(=O)(=O)O", "Study Target": "insulin receptor tyrosine kinase (InsRTK) (Rattus norvegicus, UniProt P15127)", "Unit Label": "%", "Recorded Result": 90}
{"Compound": "CC(C)(C)OC(=O)N[C@@H](Cc1c(Sc2ccc([N+](=O)[O-])cc2[N+](=O)[O-])[nH]c2ccccc12)C(=O)NCCS(=O)(=O)O", "Study Target": "insulin receptor tyrosine kinase (InsRTK) (Rattus norvegicus, UniProt P15127)", "Unit Label": "%", "Recorded Result": 95}
{"Compound": "O=C(N[C@@H](Cc1c(Sc2ccc([N+](=O)[O-])cc2[N+](=O)[O-])[nH]c2ccccc12)C(=O)NCCCS(=O)(=O)O)OCc1ccccc1", "Study Target": "insulin receptor tyrosine kinase (InsRTK) (Rattus norvegicus, UniProt P15127)", "Unit Label": "%", "Recorded Result": 70}

Now let's try a different one.
What value of Relative cell-free potency in inhibiting InsRTK has been recorded for this entry: O=C(N[C@@H](Cc1c[nH]c2ccccc12)C(=O)NCP(=O)(O)O)OCc1ccccc1
5

Where these numbers come from: patent US5776970A
